systemUnderTest: rat brain farnesyl:protein transferase (rat, UniProt Q04631 2-377; Q02293 1-437)
assayComment: cell-based or functional assay
Response field class: enum, chosen by comparing Concentration For 50% Inhibition against range A: < 0.2 µM; range B: ≥ 0.2 µM and < 5 µM; range C: ≥ 5 µM

Categorize the following entry: CLLL
range C

Also CVLS ?
range B

Also CVVM ?
range A

Also CIKS ?
range C

Also CTVA ?
range C

Also CIIC ?
range B

Also CVIM ?
range A

Also CVLM ?
range A

Also CLIL ?
range C

Also CIIS ?
range B

Also CVIL ?
range C

Also CCVQ ?
range B

Also CIIM ?
range A

Also CAIM ?
range A

Also CVIS ?
range B

Also CAIL ?
range C
